assay: small-molecule microarray binders of probe aXIP, primary screen, biochemical, NeuroSMM set, 635/667 nm fluorescence (AID 1119); conditions: higher = more signal, called active from +8 up or from −8 down;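 further: probe is the protein aXip251-270 applied at 1 µg/mL to compound-printed slides; binding of probe to printed compounds measured as 667 nm fluorescence plus signal to noise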
Listing of entries alongside the reported composite Z-score.
Enter a number only.

Some compounds with recorded composite Z-score:
{"compound": "CC(C)N1CC=CC23O[C@@H]4/C=C\\CCCOC(=O)C4[C@H]2C(=O)N(CCCCCCO)[C@@H]3C1=O (some centres undefined)", "metric": "composite Z-score", "assay-result": 0.379}
{"compound": "[N-]=[N+]=Nc1ccccc1C[C@]1(C(=O)O)N=C(c2ccc(OCCCO)cc2)O[C@H]1c1ccccc1N=[N+]=[N-]", "metric": "composite Z-score", "assay-result": 0.644}
{"compound": "CC(C)=CCCC(C)=CC(O)C1C=CC2C(=O)N(c3ccccc3)C(=O)C2N1Nc1ccccc1F (centres undefined)", "metric": "composite Z-score", "assay-result": 0.0502}

Inquiry: Looking for the measured composite Z-score of COc1ccc([Si](C)(C)[C@@H]2[C@@H](CC(=O)N3Cc4ccccc4C[C@H]3CO)O[C@]3(C(=O)N(c4ccccc4)c4ccccc43)[C@H]2C)cc1 , can you help?
Reply text: 8.06

Inquiry: What value of composite Z-score has been reported for the following compound? CCCCCCCCCCC(O)C1C=CC2C(=O)N(c3ccccc3)C(=O)C2N1Nc1ccccc1F (centres undefined)
Reply text: -0.105

Inquiry: Suppose we examine the compound C=CCC(OC(C)=O)[C@@H]1[C@@H](N(Cc2ccc(-c3cccc(C(F)(F)F)c3)o2)C(=O)Cc2ccc(OC)cc2)c2cc(OCCCO)ccc2N1C(=O)Cc1ccc2ccccc2c1 (some centres undefined) ; what composite Z-score value has been reported?
Reply text: -0.0998

Inquiry: Would you kindly share the measured composite Z-score for COC(=O)[C@@]1(Cc2ccc(F)cc2)[C@H]2c3cc(C(=O)N(C)C)n(Cc4ccc(O)c(OC)c4)c3C[C@H]2CN1C(=O)c1ccccc1 ?
Reply text: -0.136

Inquiry: What value of composite Z-score has been reported for the following compound? O=C(CS)NCCCCCCNC(=O)[C@@H]1C[C@@H]2C(=O)NCC(=O)N2[C@@H]1c1ccc(O)cc1
Reply text: 0.549

Inquiry: Dear colleague, I am looking for the recorded composite Z-score of the following compound: Cc1ccc(F)cc1S(=O)(=O)N[C@@H]1CCN(Cc2cccc3[nH]ccc23)C1
Reply text: -1.15

###

Recorded composite z-score for the following compounds
system: Human papillomavirus type 1a E7 protein (residues 1-88); assay: HPV1a E7 small-molecule binders, primary screen, biochemical, small-molecule microarray, residues 1-88, 635 nm (AID 1129); conditions: small-molecule microarray binding, fluorescence 635 nm; higher = more signal
The response must contain the number and no unit.

Worked cases, composite z-score given:
{"compound": "CC(C)C[C@@H]1NC(=O)[C@@]23C(=O)N[C@@H](Cc4ccccc4)C2[C@H](C)[C@@]2(C)O[C@H]2C3/C=C/C/C=C\\CNC(=O)[C@@H](C)NC1=O (stereo partly specified)", "system": "Human papillomavirus type 1a E7 protein (residues 1-88)", "composite z-score": -0.522}
{"compound": "CCOC(=O)C1=C[C@@H](c2ccccc2)N(S(=O)(=O)c2ccc(C)cc2)[C@H]1c1ccccc1", "system": "Human papillomavirus type 1a E7 protein (residues 1-88)", "composite z-score": 0.574}
{"compound": "CN1C(=O)C2C(C1=O)C1C=C(CCCO)C2C(c2cccs2)N1Cc1cc2c(cc1Br)OCO2 (stereo unspecified)", "system": "Human papillomavirus type 1a E7 protein (residues 1-88)", "composite z-score": 1.22}
{"compound": "[N-]=[N+]=Nc1ccccc1C[C@]1(C(=O)O)N=C(c2ccc(OCCCO)cc2)O[C@H]1c1ccccc1N=[N+]=[N-]", "system": "Human papillomavirus type 1a E7 protein (residues 1-88)", "composite z-score": 1.21}
{"compound": "O=C1O[C@H](c2ccccc2)[C@H](c2ccccc2)N2[C@H]1[C@@H](C(=O)O)[C@]1(C(=O)Nc3ccc(C#CC4(O)CCCCCC4)cc31)[C@H]2c1ccc(O)cc1", "system": "Human papillomavirus type 1a E7 protein (residues 1-88)", "composite z-score": 0.391}

Inquiry: Given the entry COC(=O)C1=CC(CCCO)=CC(C)N(Cc2cccc(OC(F)(F)F)c2)C=C1C(=O)OC (stereo unspecified) , report its measured composite z-score.
Reply text: 0.702
